TESTED_SYSTEM: AR (Homo sapiens, UniProt P10275)
Construct: endogenous in cells; host or cells: VCaP cells
ASSAY_PROTOCOL: VCAP AR Degradation Assay
Format: cell-based
CONDITION_LABEL: VCaP cells, 24 h, AR ELISA; concentration when AR level = 50% of DMSO control
Where a name gives a salt, the structure may show the parent alone.
REPORTED_PROPERTY: DC50

Kindly note the recorded DC50 for C[C@@H]1C[C@H](OCCC[C@H]2CC[C@H](N3C(=S)N(c4cnc(C#N)c(C(F)(F)F)c4)C(=O)C3(C)C)CC2)C[C@H](C)N1CC(=O)Nc1ccc(C2CCC(=O)NC2=O)cc1 (stereo partly shown) [Cmpd 38] , which is 5 to 15 nM

Kindly note the recorded DC50 for C[C@@H]1CN(CCC[C@H]2CC[C@H](N3C(=S)N(c4ccc(C#N)c(C(F)(F)F)c4)C(=O)C3(C)C)CC2)C[C@H](C)N1CC(=O)Nc1ccc(C2CCC(=O)NC2=O)cc1 (stereo partly shown) [Cmpd 3, hydrochloride] , which is 5 to 15 nM

Kindly note the recorded DC50 for C[C@@H]1C[C@@H](CCO[C@H]2CC[C@H](N3C(=S)N(c4cnc(C#N)c(C(F)(F)F)c4)C(=O)C3(C)C)CC2)C[C@H](C)N1CC(=O)Nc1ccc(C2CCC(=O)NC2=O)cc1 (stereo partly shown) [Cmpd 29] , which is ≤ 5 nM

----------
TESTED_SYSTEM: AR (Homo sapiens, UniProt P10275)
Construct: endogenous in cells; host or cells: VCaP cells
ASSAY_PROTOCOL: VCAP AR Degradation Assay
Format: cell-based
CONDITION_LABEL: VCaP cells, 24 h; lowest AR level normalized to DMSO control; class symbols
Structures can show the parent of a compound that is named as a salt.

{"columns": ["COMPOUND", "TESTED_SYSTEM", "Ymin"],
 "data": [
  ["CC[C@@]1(c2ccc(NC(=O)CN3[C@H](C)CN(CCO[C@H]4CC[C@H](N5C(=S)N(c6ccc(C#N)c(C(F)(F)F)c6)C(=O)C5(C)C)CC4)C[C@@H]3C)cc2)CCC(=O)NC1=O [Cmpd 8, hydrochloride]", "AR (Homo sapiens, UniProt P10275)", "*** (30%<Y<80%)"],
  ["C[C@@H]1CN(CCO[C@H]2CC[C@H](N3C(=S)N(c4ccc(C#N)c(Cl)c4)C(=O)C3(C)C)CC2)C[C@H](C)N1CC(=O)Nc1ccc(C2CCC(=O)NC2=O)cc1 (stereo partly drawn) [Cmpd 4, hydrochloride]", "AR (Homo sapiens, UniProt P10275)", "*** (30%<Y<80%)"]
]}

----------
We begin with a simple list: items and their reported Ymin.
TESTED_SYSTEM: AR (Homo sapiens, UniProt P10275)
Construct: endogenous in cells; host or cells: VCaP cells
ASSAY_PROTOCOL: VCAP AR Degradation Assay
Assay type: cell-based
CONDITION_LABEL: VCaP cells, 24 h; lowest AR level normalized to DMSO control; given as numbers

Sample records with Ymin:
{"columns": ["COMPOUND", "Ymin"],
 "data": [
  ["C[C@@H]1C[C@H](OCCC[C@H]2CC[C@H](N3C(=S)N(c4ccc(C#N)c(C(F)(F)F)c4)C(=O)C3(C)C)CC2)C[C@H](C)N1CC(=O)Nc1ccc(C2CCC(=O)NC2=O)cc1 (some centres unmarked)", "19 % of DMSO control"],
  ["C[C@@H]1CN(CCCC[C@H]2CC[C@H](N3C(=S)N(c4ccc(C#N)c(C(F)(F)F)c4)C(=O)C3(C)C)CC2)C[C@H](C)N1CC(=O)Nc1cccc(N2CCC(=O)NC2=O)c1", "24 % of DMSO control"],
  ["C[C@@H]1C[C@H](OCCC[C@H]2CC[C@H](N3C(=S)N(c4cnc(C#N)c(C(F)(F)F)c4)C(=O)C3(C)C)CC2)C[C@H](C)N1CC(=O)Nc1ccc(C2CCC(=O)NC2=O)cc1 (some centres unmarked)", "14 % of DMSO control"],
  ["CC1(C)C(=O)N(c2cnc(C#N)c(C(F)(F)F)c2)C(=S)N1[C@H]1CC[C@H](OCCCN2CCN(CC(=O)Nc3ccc(C4CCC(=O)NC4=O)cc3)[C@@H](C(F)(F)F)C2)CC1 (some centres unmarked)", "12 % of DMSO control"]
]}

Switching to the query record.
Kindly note the recorded Ymin for CC1(C)C(=O)N(c2cnc(C#N)c(C(F)(F)F)c2)C(=S)N1[C@H]1CC[C@H](OCCCN2CCN(CC(=O)Nc3cccc(C4CCC(=O)NC4=O)c3)[C@@H](C(F)(F)F)C2)CC1 (some centres unmarked) , which is 20 % of DMSO control

----------
We begin with a simple list: items and their reported DC50.
TESTED_SYSTEM: AR (Homo sapiens, UniProt P10275)
Construct: endogenous in cells; host or cells: VCaP cells
Sequence (P10275 1-920): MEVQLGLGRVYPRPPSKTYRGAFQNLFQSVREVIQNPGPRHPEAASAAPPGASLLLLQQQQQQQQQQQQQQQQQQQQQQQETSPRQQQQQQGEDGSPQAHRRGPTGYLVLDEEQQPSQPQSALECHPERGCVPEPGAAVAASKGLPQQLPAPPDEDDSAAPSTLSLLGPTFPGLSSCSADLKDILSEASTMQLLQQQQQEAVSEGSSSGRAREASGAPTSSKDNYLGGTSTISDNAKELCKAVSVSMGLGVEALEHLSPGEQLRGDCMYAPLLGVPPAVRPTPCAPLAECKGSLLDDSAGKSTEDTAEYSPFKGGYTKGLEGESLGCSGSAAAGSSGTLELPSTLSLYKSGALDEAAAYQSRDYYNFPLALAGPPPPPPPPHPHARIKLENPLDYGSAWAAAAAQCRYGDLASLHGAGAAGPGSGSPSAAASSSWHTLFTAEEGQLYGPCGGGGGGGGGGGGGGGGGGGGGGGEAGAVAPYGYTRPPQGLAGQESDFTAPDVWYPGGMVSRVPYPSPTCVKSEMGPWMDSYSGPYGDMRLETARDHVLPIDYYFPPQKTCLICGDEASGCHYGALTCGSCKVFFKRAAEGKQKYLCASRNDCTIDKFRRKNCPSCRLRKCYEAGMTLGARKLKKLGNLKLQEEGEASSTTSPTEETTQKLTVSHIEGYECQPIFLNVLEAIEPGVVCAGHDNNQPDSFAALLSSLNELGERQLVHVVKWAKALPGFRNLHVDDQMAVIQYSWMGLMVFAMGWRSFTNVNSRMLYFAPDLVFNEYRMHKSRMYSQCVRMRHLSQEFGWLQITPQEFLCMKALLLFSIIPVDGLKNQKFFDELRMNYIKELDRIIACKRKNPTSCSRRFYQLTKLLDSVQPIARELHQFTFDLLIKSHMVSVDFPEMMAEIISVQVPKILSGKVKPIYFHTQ
ASSAY_PROTOCOL: VCAP AR Degradation Assay
Type: cell-based
CONDITION_LABEL: VCaP cells, 24 h, AR ELISA; concentration when AR level = 50% of DMSO control
Where a name gives a salt, the structure may show the parent alone.

{"columns": ["MOLECULE", "VALUE_OBSERVED"],
 "data": [
  ["C[C@@H]1CN(CCCC[C@H]2CC[C@H](N3C(=S)N(c4ccc(C#N)c(C(F)(F)F)c4)C(=O)C3(C)C)CC2)C[C@H](C)N1CC(=O)Nc1cccc(C2CCC(=O)NC2=O)c1 (some centres unmarked)", "≤ 5 nM"]
]}

Kindly note the recorded DC50 for C[C@@H]1CN(CCO[C@H]2CC[C@H](N3C(=S)N(c4ccc(C#N)c(C(F)(F)F)c4)C(=O)C3(C)C)CC2)C[C@H](C)N1CC(=O)Nc1ccc(C2(C)CCC(=O)NC2=O)cc1 (single isomer, unassigned) [Cmpd 9, hydrochloride] , which is 100 to 10000 nM

----------
TESTED_SYSTEM: AR (Homo sapiens, UniProt P10275)
Construct: endogenous in cells; host or cells: VCaP cells
ASSAY_PROTOCOL: VCAP AR Degradation Assay
Type: cell-based
CONDITION_LABEL: VCaP cells, 24 h; lowest AR level normalized to DMSO control; class symbols
Method: VCAP AR Degradation Assay. Test compounds were pre-dispensed into a Corning CellBind 96-well clear bottom plate (Cat #3300) using an acoustic dispenser to make a 10-point concentration series at 1:3 dilution for each compound. The final top concentration of each compound was 5 μM. DMSO at a final concentration of 0.1% was used as a control. […] AR levels in compound-treated wells were normalized to that of DMSO control and expressed as percent of control (PoC) (y). […]
Structures can show the parent of a compound that is named as a salt.
REPORTED_PROPERTY: Ymin

Sample records with Ymin:
{"columns": ["MOLECULE", "TESTED_SYSTEM", "REPORTED_PROPERTY", "VALUE_OBSERVED"],
 "data": [
  ["C[C@@H]1CN(CCC[C@H]2CC[C@H](N3C(=S)N(c4ccc(C#N)c(Cl)c4)C(=O)C3(C)C)CC2)C[C@H](C)N1CC(=O)Nc1ccc(C2CCC(=O)NC2=O)cc1 (stereo partly drawn) [Cmpd 17, hydrochloride]", "AR (Homo sapiens, UniProt P10275)", "Ymin", "*** (30%<Y<80%)"],
  ["CC[C@]1(c2ccc(NC(=O)CN3[C@H](C)CN(CCO[C@H]4CC[C@H](N5C(=S)N(c6ccc(C#N)c(C(F)(F)F)c6)C(=O)C5(C)C)CC4)C[C@@H]3C)cc2)CCC(=O)NC1=O [Cmpd 7, hydrochloride]", "AR (Homo sapiens, UniProt P10275)", "Ymin", "*** (30%<Y<80%)"],
  ["CC1(C)C(=O)N(c2ccc(C#N)c(C(F)(F)F)c2)C(=S)N1[C@H]1CC[C@H](OCCN2CCN(CC(=O)Nc3ccc(C4CCC(=O)NC4=O)cc3)[C@@H](C(F)(F)F)C2)CC1 (stereo partly drawn) [Cmpd 23, hydrochloride]", "AR (Homo sapiens, UniProt P10275)", "Ymin", "* (0<Y≤20%)"],
  ["C[C@@H]1CN(CCCO[C@H]2CC[C@H](N3C(=S)N(c4ccc(C#N)c(Cl)c4)C(=O)C3(C)C)CC2)C[C@H](C)N1CC(=O)Nc1ccc(C2CCC(=O)NC2=O)cc1 (stereo partly drawn) [Cmpd 14, hydrochloride]", "AR (Homo sapiens, UniProt P10275)", "Ymin", "* (0<Y≤20%)"],
  ["C[C@@H]1CN(CCCO[C@H]2CC[C@H](N3C(=S)N(c4ccc(C#N)c(C(F)(F)F)c4)C(=O)C3(C)C)CC2)C[C@H](C)N1CC(=O)Nc1cccc(N2CCC(=O)NC2=O)c1 [Cmpd 19, hydrochloride]", "AR (Homo sapiens, UniProt P10275)", "Ymin", "** (20%<Y≤30%)"]
]}

Switching to the query record.
Kindly note the recorded Ymin for C[C@@H]1CN(CCO[C@H]2CC[C@H](N3C(=S)N(c4ccc(C#N)c(C(F)(F)F)c4)C(=O)C3(C)C)CC2)C[C@H](C)N1CC(=O)Nc1ccc(N2CCC(=O)NC2=O)cc1 [Cmpd 1, hydrochloride] , which is *** (30%<Y<80%)
